measured target: CREB-binding protein (Homo sapiens) (UniProt Q92793)
Sequence (Q92793 2-2442 limits assumed): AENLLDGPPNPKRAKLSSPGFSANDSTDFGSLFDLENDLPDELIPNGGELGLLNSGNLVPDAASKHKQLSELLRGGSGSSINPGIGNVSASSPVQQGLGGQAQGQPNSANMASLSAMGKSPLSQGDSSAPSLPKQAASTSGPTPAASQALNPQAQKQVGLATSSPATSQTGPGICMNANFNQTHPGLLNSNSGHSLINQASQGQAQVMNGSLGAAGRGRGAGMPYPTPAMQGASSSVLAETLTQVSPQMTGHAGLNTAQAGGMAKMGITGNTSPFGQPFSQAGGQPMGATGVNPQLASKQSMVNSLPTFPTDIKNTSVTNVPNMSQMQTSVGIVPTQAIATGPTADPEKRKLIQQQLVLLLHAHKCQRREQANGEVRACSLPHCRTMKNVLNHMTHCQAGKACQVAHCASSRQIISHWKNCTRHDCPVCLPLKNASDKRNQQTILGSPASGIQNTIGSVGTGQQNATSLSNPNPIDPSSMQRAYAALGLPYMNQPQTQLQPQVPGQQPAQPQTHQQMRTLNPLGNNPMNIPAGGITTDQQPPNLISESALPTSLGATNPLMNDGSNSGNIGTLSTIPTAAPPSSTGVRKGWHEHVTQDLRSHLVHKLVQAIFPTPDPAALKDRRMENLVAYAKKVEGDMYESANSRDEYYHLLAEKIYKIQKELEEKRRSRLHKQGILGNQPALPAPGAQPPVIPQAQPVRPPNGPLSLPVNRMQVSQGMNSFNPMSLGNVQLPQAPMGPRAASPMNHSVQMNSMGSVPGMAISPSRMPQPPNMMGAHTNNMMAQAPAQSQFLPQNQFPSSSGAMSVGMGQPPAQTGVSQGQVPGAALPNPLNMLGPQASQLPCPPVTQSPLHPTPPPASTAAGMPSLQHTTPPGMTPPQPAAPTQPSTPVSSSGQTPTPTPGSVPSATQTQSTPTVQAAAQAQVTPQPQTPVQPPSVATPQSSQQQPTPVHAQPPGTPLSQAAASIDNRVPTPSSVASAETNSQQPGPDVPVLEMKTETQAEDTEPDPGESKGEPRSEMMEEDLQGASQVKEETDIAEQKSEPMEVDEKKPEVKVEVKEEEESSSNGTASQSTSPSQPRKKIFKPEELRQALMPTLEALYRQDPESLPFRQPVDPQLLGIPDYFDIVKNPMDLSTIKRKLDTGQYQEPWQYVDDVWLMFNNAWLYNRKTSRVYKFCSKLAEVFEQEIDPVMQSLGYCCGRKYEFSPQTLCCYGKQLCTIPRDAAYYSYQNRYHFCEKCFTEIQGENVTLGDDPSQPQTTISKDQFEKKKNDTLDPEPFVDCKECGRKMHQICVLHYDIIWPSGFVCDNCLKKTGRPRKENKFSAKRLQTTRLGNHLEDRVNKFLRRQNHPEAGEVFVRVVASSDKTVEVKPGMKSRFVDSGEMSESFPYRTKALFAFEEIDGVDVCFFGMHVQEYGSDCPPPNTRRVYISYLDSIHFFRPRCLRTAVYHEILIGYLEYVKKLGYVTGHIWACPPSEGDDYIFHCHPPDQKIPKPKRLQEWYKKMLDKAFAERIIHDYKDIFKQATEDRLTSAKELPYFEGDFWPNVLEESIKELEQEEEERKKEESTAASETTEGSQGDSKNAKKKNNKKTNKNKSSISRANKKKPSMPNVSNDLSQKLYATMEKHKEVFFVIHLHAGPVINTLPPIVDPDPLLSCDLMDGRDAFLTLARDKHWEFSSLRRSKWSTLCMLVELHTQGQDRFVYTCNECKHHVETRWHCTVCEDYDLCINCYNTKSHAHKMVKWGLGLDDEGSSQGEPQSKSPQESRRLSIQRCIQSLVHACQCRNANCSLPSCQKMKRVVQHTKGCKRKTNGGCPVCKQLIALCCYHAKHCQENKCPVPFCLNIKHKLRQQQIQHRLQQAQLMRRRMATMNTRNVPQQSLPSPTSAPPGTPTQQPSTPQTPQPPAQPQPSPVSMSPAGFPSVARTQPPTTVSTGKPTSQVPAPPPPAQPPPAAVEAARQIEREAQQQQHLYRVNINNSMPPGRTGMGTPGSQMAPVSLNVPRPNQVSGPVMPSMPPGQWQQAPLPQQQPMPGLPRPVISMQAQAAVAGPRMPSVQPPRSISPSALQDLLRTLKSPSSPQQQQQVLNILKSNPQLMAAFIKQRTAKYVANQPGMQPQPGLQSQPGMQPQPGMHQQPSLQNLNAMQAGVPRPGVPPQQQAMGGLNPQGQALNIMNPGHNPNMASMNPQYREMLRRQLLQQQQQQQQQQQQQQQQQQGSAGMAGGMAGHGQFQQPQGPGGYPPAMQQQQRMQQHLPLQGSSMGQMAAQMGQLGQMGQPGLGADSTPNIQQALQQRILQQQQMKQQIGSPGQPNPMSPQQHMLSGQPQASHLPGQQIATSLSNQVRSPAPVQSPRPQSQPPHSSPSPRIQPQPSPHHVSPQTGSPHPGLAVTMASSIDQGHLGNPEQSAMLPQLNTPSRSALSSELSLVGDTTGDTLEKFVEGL
assay comment: Binding affinity of recombinant His-tagged CREBBP (unknown origin) to histone H4Ac (1 to 21 residues) K5/8/12/Ac-Biotin-OH assessed as residual binding at 10 uM incubated for 30 mins by alphascreen analysis relative to control
Reported Activity values for the following molecules.

// Activity lookup, key: CCc1nn(C)c(=O)n1-c1ccc(OC)c(OC)c1
> 100%

Could you tell me which Activity is on file for CCn1nc(C)n(-c2ccc(OC)c(OC)c2)c1=O ?
> 100%

Which value of Activity has been reported for CCn1nc(C)n(-c2ccc3c(c2)OCO3)c1=O in the records?
> 100%

Report Activity for CCn1nc(C)n(-c2ccc(F)c(Cl)c2)c1=O please.
> 100%
